tested on: BDF1 mice, B16 melanoma ip, median survival T/C; assay: NCI In Vivo Anticancer Drug Screen. Data for tumor model B16 Melanoma (intraperitoneal) in B6D2F1 (BDF1) mice; settings: endpoint: median survival time; dose: 50.0 mg/kg/injection; schedule: Q04DX003 (ip); vehicle: Klucel (hydroxypropylcellulose) (HPC); higher = longer survival
Toxic doses and inconclusive results are not listed.
Kindly state T/C for each of the entries shown.

Input: Looking for the measured T/C of c1ccc(C(=C2CCC2)c2c3ccccc3cc3ccccc23)cc1 , can you help?
Output: 91 % of control

Input: Now consider Cc1cccc(CN2CCN(C(c3ccccc3)c3ccc(Cl)cc3)CC2)c1 (stereo unspecified) and answer again.
Output: 89 % of control

Input: Repeat for the following molecule: C=CCOc1ccccc1Cl
Output: 122 % of control

Input: Same thing, different molecule: C#CCC1(OC(N)=O)CCCCC1
Output: 98 % of control

Input: Here is the next molecule: O=S(=O)(O)c1ccc(N=Nc2ccc(O)cc2)cc1
Output: 105 % of control

Input: Similarly, NC(N)=Nc1nc2ccccc2s1 ?
Output: 97 % of control

----------
tested on: BDF1 mice, B16 melanoma ip, median survival T/C; test: NCI In Vivo Anticancer Drug Screen. Data for tumor model B16 Melanoma (intraperitoneal) in B6D2F1 (BDF1) mice; conditions: endpoint: median survival time; dose: 4.0 mg/kg/injection; schedule: Q01DX009 (ip); vehicle: saline sonified
Toxic doses and inconclusive results are not listed. The calls were made as follows: active = survival T/C of 150% or more; inactive = T/C below 125% in these data.
Answer with one of the outcomes given here: active, inactive

Input: Status in this test for OC(C1CO1)C(O)C1CO1 (centres undefined) ?
Output: active

Input: // repeat for O=c1nc(NC(=S)Nc2ccn(C3OC(CO)C(O)C3O)c(=O)n2)ccn1C1OC(CO)C(O)C1O (centres undefined) and report
Output: inactive

Input: Try this molecule next: CC[n+]1c(-c2ccccc2)c2cc(N)ccc2c2ccc(N)cc21
Output: inactive

Input: Please do the same for CCCCCCCCCCCC[S+](C)C as well.
Output: inactive

----------
test system: BDF1 mice, B16 melanoma ip, median survival T/C; assay: NCI In Vivo Anticancer Drug Screen. Data for tumor model B16 Melanoma (intraperitoneal) in B6D2F1 (BDF1) mice; details: endpoint: median survival time; dose: 12.5 mg/kg/injection; schedule: Q01DX009 (ip); vehicle: water; higher = longer survival
Inconclusive results and toxic doses are left out.
assay endpoint: T/C

Input: # input molecule: CCCCn1ccnc1C ; wanted: its T/C
Output: 91 % of control

Input: Let us now turn to CCCC1CC[N-]CC1.CCCC1CC[N-]CC1.[Br][Pt+2]([Br])([Br])[Br]
Output: 97 % of control

Input: Now this one: CCN(CC)CCCC(C)NS(=O)(=O)c1cccc2c(N(C)C)cccc12 (configuration not stated)
Output: 104 % of control

Input: Please answer likewise for O=C1/C(=C/c2ccc([N+](=O)[O-])cc2)CCc2ccccc21
Output: 94 % of control

Input: Note, next up: CC(C)[C@](O)(C(=O)OCC1=CC[N+]2([O-])CC[C@@H](O)[C@@H]12)[C@H](C)O (some centres not stated)
Output: 105 % of control

Input: Same again, this time with COc1cc2c(cc1OC)/C(=N/N=C1\CCCc3cc(OC)c(OC)cc31)CCC2
Output: 95 % of control

Input: Would you mind doing [Cl][Mn][Cl] as well?
Output: 98 % of control

Input: And the next one, CNNCc1ccc(/C=N/NC(N)=S)cc1 ?
Output: 105 % of control

Input: Would you mind doing Cc1cc([N+](=O)[O-])c(S(N)(=O)=O)c([N+](=O)[O-])c1 as well?
Output: 100 % of control

Input: Try COc1cccc2c1C(=O)c1c(O)c3c(c(O)c1C2=O)CC(O)(C(C)=O)CC3OC1CC([N+](C)(C)C)C(O)C(C)O1 (configuration not stated) next.
Output: 110 % of control

Input: // next record Nc1n[n+](-c2ccccc2)no1
Output: 119 % of control

Input: Can you check COCC(O)Cn1ccnc1[N+](=O)[O-] (configuration not stated) next?
Output: 95 % of control

----------
test system: BDF1 mice, B16 melanoma ip, median survival T/C; assay: NCI In Vivo Anticancer Drug Screen. Data for tumor model B16 Melanoma (intraperitoneal) in B6D2F1 (BDF1) mice; conditions: endpoint: median survival time; dose: 50.0 mg/kg/injection; schedule: Q01DX009 (ip); vehicle: other; higher = longer survival
Inconclusive results and toxic doses are left out.
Could you please report measured T/C for the items listed next?

Input: Can you share its T/C? I mean this molecule: CCSc1ccc2c(cc1=O)[C@@H](NC1OC(CO)C(O)C(O)C1O)CCc1cc(OC)c(OC)c(OC)c1-2 (some centres undefined)
Output: 101 % of control

Input: Again, but for CCOC(=O)C(C)Oc1ccc(Cl)cc1 (centres undefined)
Output: 111 % of control

Input: Also Cc1ccc(C(=O)/C=C/c2ccccc2)cc1 ?
Output: 105 % of control

Input: For C1CCC(OB2OB(OC3CCCCC3)OB(OC3CCCCC3)O2)CC1 then?
Output: 103 % of control

----------
tested on: BDF1 mice, B16 melanoma ip, median survival T/C; experiment: NCI In Vivo Anticancer Drug Screen. Data for tumor model B16 Melanoma (intraperitoneal) in B6D2F1 (BDF1) mice; settings: endpoint: median survival time; dose: 100.0 mg/kg/injection; schedule: Q01DX009 (ip); vehicle: saline with Tween-80; higher = longer survival
Inconclusive results and toxic doses are left out. Square brackets hold non-standard residues; d marks the D form. Peptide text beside a SMILES is read from it. * marks the point of attachment. Nle = CCCC[CH](N)C(=O)O; Cbz = O=C(OCc1ccccc1)*
assay endpoint: T/C

Input: Which T/C is reported with BDF1 mice, B16 melanoma ip, median survival T/C for this entry: C=CC1CN2CCC1CC2C(O)c1ccnc2ccc(OC)cc12 (stereo not drawn) (tested in a mixture with another compound) ?
Output: 107 % of control

Input: Same lookup for O=C(COc1ccc(Cl)cc1)Nc1cc(C(F)(F)F)ccc1Cl , please.
Output: 105 % of control

Input: And then CCN1CSC(=S)N(CC)C1 , what is it?
Output: 100 % of control

Input: CC(=O)N\C(N)=N/N=C\C(C)=N/N=C(\N)NC(C)=O , same question.
Output: 99 % of control

Input: Same for O=C(NC1CCc2ccccc21)c1ccccc1 (stereo not drawn)
Output: 90 % of control

Input: Here is the next molecule: c1cc[c]([Sn]([S][Sn]([c]2ccccc2)([c]2ccccc2)[c]2ccccc2)([c]2ccccc2)[c]2ccccc2)cc1
Output: 93 % of control

Input: Likewise for Cc1c(Cl)cccc1NC(=O)C(c1ccccc1)c1ccccc1 ?
Output: 91 % of control

Input: Try the molecule CC(C)(C)OC(=O)NC(N)=NCCCC(NC(=O)OC(C)(C)C)C(=O)O (stereo not drawn)
Output: 88 % of control

Input: Same read-out for CCOC(=O)C(=CN(C(C)C)C(C)C)C(=O)OCC ?
Output: 111 % of control

Input: Repeat with O=S(=O)(O)C1CCC[N-]C1.O=S(=O)(O)C1CCC[N-]C1.[Cl][Pt+2]([Cl])([Cl])[Cl] (stereo not drawn)
Output: 105 % of control

Input: Can you check CCc1cc(C)cc(OC(=O)Nc2ccc(Cl)cc2)c1 next?
Output: 116 % of control

Input: What about this molecule? O=C(O)C1C(C(=O)O)C2(Cl)C(Cl)=C(Cl)C1(Cl)C2(Cl)Cl.[Fe] (stereo not drawn)
Output: 93 % of control

Input: Request: CCOC(=O)C(Cc1ccc(O)cc1)Nc1nc2ccccc2o1 (stereo not drawn)
Output: 106 % of control

Input: Can you handle COC(=O)c1ccccc1C=C(c1ccc([N+](=O)[O-])cc1)c1ccc([N+](=O)[O-])cc1 next?
Output: 113 % of control

Input: Field entry: CC1(C)C=C(C(Br)c2ccc(Cl)cc2)C(=O)c2ccccc21 (stereo not drawn)
Output: 106 % of control

Input: What would you report for CCc1cc(C)cc(OC(=O)Nc2ccccc2)c1 ?
Output: 97 % of control

Input: Same again, this time with CN(C)c1c(-c2ccccc2)cc(-c2ccccc2)[nH]c1=O
Output: 86 % of control

Input: Quick one: OC1(c2ccccc2)c2ccc(Br)cc2-c2cc(Br)ccc21
Output: 92 % of control

Input: Also Nc1nccnc1N , if possible.
Output: 88 % of control

Input: What do we get for Cc1ccc(Cl)cc1NC(=O)COc1ccc(Cl)cc1 ?
Output: 88 % of control

Input: Next record, please: O=C1CC2C=CCC12 (stereo not drawn)
Output: 107 % of control

Input: Now the same for O=C(O)C1OC1c1ccccc1 (stereo not drawn)
Output: 97 % of control

Input: And the next one, O=Cc1c(O)c2ccccc2[nH]c1=O ?
Output: 122 % of control

Input: Subsequent entry: CC(C)(O)C(C)(O)c1ccc(Cl)cc1 (stereo not drawn)
Output: 104 % of control

Input: Next molecule: Cc1cc2oc(C)[n+](Cc3ccccc3)c2cc1C
Output: 98 % of control

Input: Entry Cc1cc(Cl)ccc1NC(=O)CCl please
Output: 100 % of control

Input: And for COc1cc([N+](=O)[O-])ccc1NC(=O)Nc1ccc(Cl)cc1 ?
Output: 91 % of control

Input: CCOC(=O)c1cc(C(=O)OCC)c(=O)oc1OCC ?
Output: 100 % of control

Input: Quick one: NC(=O)NC1CCCC1
Output: 106 % of control

Input: Next record, please: CC1C=NNC1=O (stereo not drawn)
Output: 95 % of control

Input: What about CC(C)CN(CC(C)C)c1ccc([N+](=O)[O-])cc1[N+](=O)[O-] ?
Output: 105 % of control

Input: Another: COC1(OC)C2C=CC1CC2
Output: 97 % of control

Input: What do you get for COc1ccc2nc3cc(Cl)ccc3c(NCCNCCNCCNc3c4ccc(Cl)cc4nc4ccc(OC)cc34)c2c1 ?
Output: 90 % of control

Input: Let us now turn to CCCCC(NC(=O)C(Cc1ccccc1)NC(=O)OCc1ccccc1)C(=O)O (stereo not drawn) (Cbz-Phe-[Nle]-OH; configuration not given here)
Output: 100 % of control

Input: Cc1ccccc1SSc1ccccc1C ?
Output: 103 % of control

Input: Param item: N#CCCSC(=S)C1CCCC1=N (stereo not drawn)
Output: 103 % of control

Input: // query: CC(C)(C)OC(=O)n1cnc(CC(NC(=O)OCc2ccccc2)C(=O)O)c1 (stereo not drawn)
Output: 89 % of control

Input: Field entry: CCOC(=O)N1CCc2nc3ccc(Cl)cc3cc21
Output: 124 % of control

Input: # iterate: CC1CCCCC1NC(=O)NCCOC(=O)OCCNC(=O)NC1CCCCC1C (stereo not drawn)
Output: 97 % of control

Input: Would you mind doing C#CCOCC1CO1 (stereo not drawn) as well?
Output: 91 % of control

Input: Next: COc1nc(NC(C)C)nc(NC(C)C)n1
Output: 86 % of control

Input: Here is the next molecule: CC(=O)OCC(CCC(C)C)=C(C)C
Output: 97 % of control

Input: Please give the result for C/C(C/C(C)=N/O)=N/O.C/C(C/C(C)=N/O)=N\O.[Cl][Rh][Cl] too.
Output: 98 % of control

Input: For CC(=O)C1=C(C)NC(C)=C(C(C)=O)C1C then?
Output: 95 % of control

Input: Now give it for COC1/C=C/O[C@@]2(C)Oc3c(C)c(O)c4c(O)c(cc(O)c4c3C2=O)NC(=O)/C(C)=C\C=C\[C@H](C)C(O)[C@@H](C)[C@@H](O)[C@@H](C)[C@H](OC(C)=O)[C@@H]1C (stereo partly drawn) too.
Output: 100 % of control

Input: Now give it for CSc1nc(NC(C)C)nc(NC(C)C)n1 too.
Output: 102 % of control

Input: What do you have for CN=C(N)N/N=C(\C)c1ccc2c(c1)Cc1ccccc1-2 ?
Output: 112 % of control

Input: Entry CCC(C#N)=C1CCCCC1 please
Output: 114 % of control

Each recorded value in this set is attributed to PubChem BioAssay AID192.
